Can you tell me polymerase ribozyme fitness (log ratio) for the items I'm about to list?
B1: TPR t1 (parent)
chain: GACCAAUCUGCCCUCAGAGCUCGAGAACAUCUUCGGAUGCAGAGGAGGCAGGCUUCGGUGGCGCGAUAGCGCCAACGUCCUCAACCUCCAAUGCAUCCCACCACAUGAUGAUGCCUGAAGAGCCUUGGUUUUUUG

variants of: B1; experiment: polymerase ribozyme fitness, log enrichment relative to wild type (log ratio); higher = more active; in vitro selection for triplet polymerase activity
Give bare numbers.

Some entries whose results are on file:
{"Input Sequence": "GACCAAUCUGCCCUCAGAGCUCGAGAACAUCUUCGGAUGCAGAAGAGGCAGGCUUCGGUGGCGCGAUAGCGCCAACGUCCUCAACCUCCAAUGCAUCCCACCGCUUGAUGAUGCCUAAAGAGCCUUGGUUUUUUG [G44A A103G A105U G117A]", "Measured Value": -6.51}
{"Input Sequence": "GACCAAUCUGCCCUCAGAGCUCGAGAACAUCUUCGGAUGCAGAGAAGGCUGGCUUCGGUGGCGCGAUAGCGCCAACGUCCUCAACCUCCAAUGCAUCCCACCACAUGAUGAUGCCUGAAGAGCCUUGGUUUUUUG [G45A A50U]", "Measured Value": -1.05}
{"Input Sequence": "GACCAAUCUGCCCUCAGAGCUCGAGAACAUCUUCGGAUGCAGAGGAGGCAGGCUUCGGUGGCGCGAUAGCGCGAACGUCCUCAACCUCCGAUGCAUCCCACCAUAUGAUGACGCCUGAAGUGCCUUGGUCUUUUG [C73G A90G C104U U112C A121U U130C]", "Measured Value": 1.89}

Please look at the items below and tell me polymerase ribozyme fitness (log ratio) for each one, in order.
1. GACCAAUCUGCCCUCAGAGCUCGAGAACAUCUUCGGAUGCAGAGGAGGCAGGCUUCGGUGGCGCGAUAGCGCCAACGUCCUCAACCUCCAAUGCAUCCCACCACAUGAUGAUACAUGAAGAGCCUUGGUUUUUUG [G113A C115A]
2. GACCAAUCUGCCCUCAGAGCUCGAGAACAUCUUCGGAUGCAUAGGAGGCAGGCUUCGGUGGCGCGAUAGCGCCCACGUCCUCAACCUCCAAUGCAUCCCACCACAUGAUGAUGCCUUAAGAGCCUUGGUUUUUUG [G42U A74C G117U]
3. GACCAAUCUGCCCUCAGAGCUCGAGAACAUCUUCGGAUGCAGAGGAGGCAGGCUUCGGUGGCGCGAUAGCGCCAACGUCCUCACGCUCCAAUACAUCCCAUCACAUGAUGAUGCCUGAAGAGCCUUGGUUUUUUG [A84C C85G G93A C101U]
4. GACCAAUCUGCCCUCAGAGCUCGAGAACAUCUUCGGAUGCAGAGGAGGAAGGCUUCGGUGGCGCGAUAUCGCCAACGUCCACAACCUCAAAUUCAUCCCACCACAUGAUGAUGCGUGAAGAGGCUUGGUUUUUUG [C49A G69U U81A C89A G93U C115G C123G]
5. GACAAAUCUGCCCUCAGAGCUCGAGAACAUCUUCGGAUGCAGAGGAGGCAGGCUUCGGUAGCGCGAUAGCGCCAACGUCCUCAACCUCCAAUGCAUCCCACCACAUGAUGAUGCCUGAAGAGCCUUGGUUUUUUG [C4A G60A]

-3.51
-4.16
-2.22
-2.93
-0.949

Please look at the items below and tell me polymerase ribozyme fitness (log ratio) for each one, in order.
1. GACCAAUCUGCCCUCAGAGGUCGAGAACAUCUUCGGGUGCAGAGGAGGCAGGCUUCGGUGGCGCGAUAUCGCCAACGUUCUCAACCUCCAAUGCAUCCCACCACAUGAUGAUGCCUCAAGAGCCUUGGUUUUUUG [C20G A37G G69U C79U G117C]
2. GACCAAUCUGCCCUCAGAGCUCGAGAACAUCUUCGGAUGCAGAGGAGGCAGGCUUCGGUGGCGCGAUAGCGCCAACGUACUCAACCUCCAAUGCAUCCCACCACAUGAUGAUGCCUGAAGAGCCUUGGAUUUUUG [C79A U129A]
3. GACCAAUCUGCCCUCAGAGCUCGAGAACAUCUUCGGAUGCAGAGGAGGCAGGCAUCGGUGGCGUGAUAGCGCCAACGUCCUCAACCUCCAAUGCAUCCCACCACAUGAUGAUGCCUGAAGAGCCUUGGUUUUUUG [U54A C64U]

-1.73
-2.44
-0.112

Please look at the items below and tell me polymerase ribozyme fitness (log ratio) for each one, in order.
1. GACCAAUCUGCCCUCAGUGCUCGAGAACAUCUUCGGAUGCAGAGGAGGCAGGCUUCGGUGGCGCGAUAGCGCCAACGUCCUCAACCUUCAAUGCAUCCCACCACAUGAUGAUGCCUGAAGAGCCUUGGUUUUUUG [A18U C88U]
2. GACCAAUCUGCCCUCUGAGCUCGAGAACAUCUUCGGAUGCAGAGGAGGCAGGCUUCGGUGGCCCGAUAGCGCCAACGUCCUCAACCUCCAAUGCAUCCCACCACAUGAUGAUGCCUGAAUAGCCCUGGUUUUUUG [A16U G63C G120U U125C]
3. GACCAAUCUGCCCUCAGAGCUCGAGAACAUCUUCGGAUGCCGAGGAGGCAGGCUUCGGUGGCGCGAUAGCGCCAACGUCCUCAACCUCGAAUGCAUCCCACCACAUGAUGAUGCCUGAAGAGCCUUGGUUUUUUG [A41C C89G]
4. GACCAAUCUGCUCUCAGAGCUCGAGAACAUCUUCGGAUGCAGAGGAGGCAGGCUUCGGUCGCGCGAUAGCGCCAACGUCCUCAACCUCCAAUGCAUCCCACCACAUGAGGAUGCCUGAAGAGCCUUGGUUUUUUG [C12U G60C U109G]
5. GACCAAUCUGCCCUCAGAGCUCGAGAAUAUCUUCGGAUGCAUAUGAGGCAGGCUUCGGUGUCGCGAUAGCGCCAACGUCCUCAACCUCCAAUGCAUCCCACCACAUGAUGAUGCCUGAAGAGCCUUGGUUUUUUG [C28U G42U G44U G61U]
6. GACCAAUCUGCCCUCAGAGCUCGAGGAUAUCUUCGGAUGCAGAGGAGGCAGGCUUCGGUGGCGCGAUAGCGCCAACGUCCUCAACCUCCAAUGCAUCCCACCACAUGAUGAUGCCUGAAGGGCCUUGGUUUUUUG [A26G C28U A121G]

1: -2.25; 2: -0.937; 3: -3.37; 4: -4; 5: -4.27; 6: -0.559
